SYSTEM: AtNRT1.1 (Arabidopsis thaliana, UniProt Q05085, T101D)
Sequence (Q05085 whole entry T101D): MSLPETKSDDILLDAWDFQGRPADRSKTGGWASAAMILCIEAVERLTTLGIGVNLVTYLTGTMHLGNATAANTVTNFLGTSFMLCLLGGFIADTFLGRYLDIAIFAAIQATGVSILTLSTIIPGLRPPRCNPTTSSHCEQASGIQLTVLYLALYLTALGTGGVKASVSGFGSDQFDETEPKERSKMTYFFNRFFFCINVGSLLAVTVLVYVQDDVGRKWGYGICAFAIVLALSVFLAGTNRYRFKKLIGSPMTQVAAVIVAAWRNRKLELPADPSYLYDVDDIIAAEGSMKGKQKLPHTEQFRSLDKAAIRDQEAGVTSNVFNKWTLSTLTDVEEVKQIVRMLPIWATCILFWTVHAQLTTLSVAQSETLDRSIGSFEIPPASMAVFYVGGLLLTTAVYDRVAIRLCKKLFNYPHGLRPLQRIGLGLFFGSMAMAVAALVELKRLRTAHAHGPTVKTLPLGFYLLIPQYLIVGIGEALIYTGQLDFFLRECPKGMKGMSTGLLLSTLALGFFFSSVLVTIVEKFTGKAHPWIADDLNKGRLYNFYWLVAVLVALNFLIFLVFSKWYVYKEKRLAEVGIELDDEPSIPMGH
ASSAY NOTES: microscale thermophoresis
pKd: −log10 of the molar value.

MOLECULE: O=[N+]([O-])O [nitrate]
pKd: 3.00

---

SYSTEM: PepTSo (Shewanella oneidensis)
pKd: −log10 of the molar value. Peptide text beside a SMILES is read from it.

COMPOUND: C[C@H](N)C(=O)N[C@@H](C)C(=O)O [Ala-Ala] (H-Ala-Ala-OH)
pKd: ~4.46
